MEASURED ON: wt FucP (Escherichia coli, UniProt P11551)
Construct: made in house; host or cells: E. coli BL21 DE3
PROTOCOL TEXT: SSM-based electrophysiology, proteoliposomes with wt FucP
Type: biochemical
CONDITION DETAILS: EC50,1, double Michaelis–Menten fit, pH 7.6; peak currents

COMPOUND | EC50 / µM
OC1OC[C@@H](O)[C@@H](O)[C@@H]1O (stereo partly drawn) [D-arabinose] | 820

---

MEASURED ON: wt XylE (Escherichia coli)
Sequence (P0AGF4 whole entry): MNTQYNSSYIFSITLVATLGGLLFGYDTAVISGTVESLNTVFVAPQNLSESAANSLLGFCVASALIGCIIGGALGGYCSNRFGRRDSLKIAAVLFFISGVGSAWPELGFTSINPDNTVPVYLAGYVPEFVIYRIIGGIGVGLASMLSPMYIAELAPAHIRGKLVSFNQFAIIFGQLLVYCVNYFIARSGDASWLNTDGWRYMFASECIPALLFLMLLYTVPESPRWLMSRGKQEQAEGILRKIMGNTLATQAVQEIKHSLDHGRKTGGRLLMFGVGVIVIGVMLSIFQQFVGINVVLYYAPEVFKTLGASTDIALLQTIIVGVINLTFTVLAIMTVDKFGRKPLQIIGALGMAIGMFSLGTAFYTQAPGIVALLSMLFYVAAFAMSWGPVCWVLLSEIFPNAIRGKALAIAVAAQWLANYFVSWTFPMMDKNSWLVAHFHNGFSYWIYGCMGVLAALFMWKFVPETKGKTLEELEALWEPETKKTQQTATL
PROTOCOL TEXT: biochemical
Parameters: made in house; host or cells: E. coli BL21 DE3
CONDITION DETAILS: EC50,1, double Michaelis–Menten fit, pH 7.6; peak currents
pEC50: −log10 of the molar value.

COMPOUND | pEC50
OC[C@H]1OC(O)[C@H](O)[C@@H](O)[C@@H]1O (stereo partly shown) | 3.80

---

MEASURED ON: wt LacY (Escherichia coli)
Construct: made in house; host or cells: E. coli XL1-Blue
Sequence (P02920 1-417): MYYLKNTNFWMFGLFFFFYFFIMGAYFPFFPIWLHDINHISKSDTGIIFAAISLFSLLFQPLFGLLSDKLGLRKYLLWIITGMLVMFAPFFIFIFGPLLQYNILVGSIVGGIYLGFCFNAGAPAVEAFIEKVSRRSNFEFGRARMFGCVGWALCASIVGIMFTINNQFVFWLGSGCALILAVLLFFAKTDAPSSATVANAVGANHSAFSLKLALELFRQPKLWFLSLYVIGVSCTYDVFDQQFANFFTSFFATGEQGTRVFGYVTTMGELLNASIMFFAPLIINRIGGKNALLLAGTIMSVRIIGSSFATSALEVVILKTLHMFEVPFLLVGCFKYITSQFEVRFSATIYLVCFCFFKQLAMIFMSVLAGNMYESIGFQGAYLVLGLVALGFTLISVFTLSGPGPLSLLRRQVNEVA
PROTOCOL TEXT: SSM-based electrophysiology, proteoliposomes with wt LacY
Type: biochemical
CONDITION DETAILS: EC50,1, double Michaelis–Menten fit, pH 7.6; peak currents
pEC50: −log10 of the molar value.
OBSERVATION TYPE: pEC50

COMPOUND | MEASURED ON | MEASURED RESULT
OC[C@H]1O[C@@H](O[C@@H]2[C@@H](CO)OC(O)(CO)[C@H]2O)[C@H](O)[C@@H](O)[C@H]1O (mixture of isomers) | wt LacY (Escherichia coli) | 3.06

---

MEASURED ON: wt FucP (Escherichia coli, UniProt P11551)
Construct: made in house; host or cells: E. coli BL21 DE3
Sequence (P11551 1-438): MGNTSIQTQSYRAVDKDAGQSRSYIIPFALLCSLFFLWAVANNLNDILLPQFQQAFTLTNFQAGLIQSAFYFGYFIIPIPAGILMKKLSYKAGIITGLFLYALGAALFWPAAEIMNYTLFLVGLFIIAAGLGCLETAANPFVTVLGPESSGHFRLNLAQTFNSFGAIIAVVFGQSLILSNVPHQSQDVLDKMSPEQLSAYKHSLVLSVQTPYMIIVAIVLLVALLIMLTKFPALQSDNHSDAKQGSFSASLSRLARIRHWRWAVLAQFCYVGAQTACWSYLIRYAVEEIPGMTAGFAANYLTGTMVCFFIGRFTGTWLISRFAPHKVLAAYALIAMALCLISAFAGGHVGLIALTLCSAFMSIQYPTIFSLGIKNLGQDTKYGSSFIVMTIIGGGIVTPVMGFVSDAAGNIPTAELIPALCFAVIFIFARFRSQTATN
PROTOCOL TEXT: SSM-based electrophysiology, proteoliposomes with wt FucP
Format: biochemical
CONDITION DETAILS: EC50,2, double Michaelis–Menten fit, pH 7.6; peak currents

COMPOUND | MEASURED ON | UNITS OF MEASURE | EC50
OC1OC[C@@H](O)[C@@H](O)[C@@H]1O (stereo partly shown) | wt FucP (Escherichia coli, UniProt P11551) | mM | 38

---

MEASURED ON: UniProt P0AGF4
PROTOCOL TEXT: biochemical
Parameters: made in house; host or cells: E. coli BL21 DE3
CONDITION DETAILS: EC50,2, double Michaelis–Menten fit, pH 7.6; peak currents
pEC50: −log10 of the molar value.

MOLECULE | MEASURED ON | pEC50
OC[C@H]1OC(O)[C@H](O)[C@@H](O)[C@@H]1O (stereo partly shown) | UniProt P0AGF4 | 2.19

---

MEASURED ON: UniProt:P0AGF4
PROTOCOL TEXT: biochemical
Parameters: made in house; host or cells: E. coli BL21 DE3
CONDITION DETAILS: EC50, Hill fit, pH 7.6; peak currents; Hill equation
pEC50: −log10 of the molar value.
OBSERVATION TYPE: pEC50

MOLECULE | MEASURED RESULT
OC[C@H]1OC(O)[C@H](O)[C@@H](O)[C@@H]1O (stereo partly shown) | 3.04
